Cited source for all entries: PubChem BioAssay (NCI)

System: SR leukemia
ASSAY INFO: NCI tumour cell line growth inhibition, 48 h
Let's look at some molecules and their measured TGI.

{"MOLECULE": "O=C1C(C(Nc2ccccc2)c2ccccc2)=C([O-])c2ccccc21.O=C1C(C(Nc2ccccc2)c2ccccc2)=C([O-])c2ccccc21.[Co+2] (stereo unspecified)", "TARGET DESC": "SR leukemia", "READOUT NAME": "TGI", "RESULT": "> 100 µM"}
{"MOLECULE": "COc1cc(C2CC(C)(N3CCCC3)Oc3cc4c(cc32)OCO4)cc(OC)c1OC (stereo unspecified)", "TARGET DESC": "SR leukemia", "READOUT NAME": "TGI", "RESULT": "> 100 µM"}
{"MOLECULE": "CCCCCCC(C)c1ccc2c(c1)C(=O)c1nc3ccncc3c(=O)n1-2 (stereo unspecified)", "TARGET DESC": "SR leukemia", "READOUT NAME": "TGI", "RESULT": "2.57 µM"}
{"MOLECULE": "COc1cccc(C2SCC(=O)N2c2ccc(-c3ccc(-n4c(-c5ccccc5)nc5ccccc5c4=O)cc3)cc2)c1OC (stereo unspecified)", "TARGET DESC": "SR leukemia", "READOUT NAME": "TGI", "RESULT": "> 100 µM"}
{"MOLECULE": "COc1ccc(C(=O)C2C(C#N)C(C#N)C3C=Cc4ccccc4N32)cc1 (stereo unspecified)", "TARGET DESC": "SR leukemia", "READOUT NAME": "TGI", "RESULT": "> 100 µM"}

Determine its reported TGI: "CCN1C(Cl)=NS(=O)(=O)c2ccccc21" > 100 µM

Determine its reported TGI: C=C1C[C@H](O)[C@H]2C(C[Se]c3ccccc3)C(=O)O[C@@H]2[C@H]2[C@H](C)C(O)C[C@@H]12 (stereo partly specified) > 100 µM

Determine its reported TGI: "Cc1nnc2sc(Cc3cnc(N)s3)nn12" > 100 µM

Determine its reported TGI: "Cn1ccnc1Cn1cc(-c2cccc(-c3cn[nH]c3)c2)cn1" > 100 µM

Determine its reported TGI: C=C(C)C(=O)OC1C[C@H](COC(C)=O)C2CC=C(C)C2C2OC(=O)C(=C)[C@H]12 (stereo partly specified) 5.07 µM

Determine its reported TGI: "COc1ccc(C(=O)NCCNc2nccc(-c3c(-c4ccc(F)cc4)nc4sccn34)n2)cc1" 49.1 µM

Determine its reported TGI: "CCC(=O)Oc1cc(/C=C/C(=O)O[C@H]2C[C@H]3CN4CCc5c([nH]c6cc(OC)ccc56)[C@@H]4C[C@@H]3[C@@H](C(=O)OC)[C@@H]2OC)ccc1OC" > 100 µM

Determine its reported TGI: COC1CC(OC)C2OC(c3ccccc3)OCC2O1 (stereo unspecified) > 100 µM

Determine its reported TGI: "COc1ccc(-c2c3ccccc3c(-c3ccc(OC)cc3)c3ccccc23)cc1" > 100 µM

Determine its reported TGI: CC(C)(C)C1CCC2c3c([nH]c4ccccc34)C3C(=O)N(c4ccc(C(=O)O)cc4)C(=O)C3C2C1 (stereo unspecified) > 100 µM

Determine its reported TGI: CC1(SCC(N)C(=O)O)CC(=O)NC1=O (stereo unspecified) > 100 µM

Determine its reported TGI: "Cc1c(C(=N)N)oc2ccccc12" > 100 µM

Determine its reported TGI: COc1cc2c(c(OC)c1)C(C)=NC(C)C2 (stereo unspecified) > 100 µM

Determine its reported TGI: "O=C(Cc1nc2cccnc2nc1/C=C(\O)c1ccccc1)c1ccccc1" > 100 µM

Determine its reported TGI: C=C1C2CC[C@@](C)(O)C2[C@H]2OC(=O)C(=C)[C@@H]2C[C@H]1O (stereo partly specified) > 100 µM

Determine its reported TGI: "Cc1noc(NS(=O)(=O)c2ccc(NC(=O)c3ccc4[nH]c5ccccc5c(=O)c4c3)cc2)c1C" 85.2 µM
